B1: REST corepressor 3, residues 87 to 134; numbered along this chain, Q9P2K3 (parent)
chain: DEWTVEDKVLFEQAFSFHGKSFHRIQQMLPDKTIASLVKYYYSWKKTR

- Variants of: B1
- test.details: abundance fitness (aPCA) (normalised: wild type 0, dead -1); higher = more abundant; growth selection in yeast, the domain comes from the species named
- measurement.parameters: Homo sapiens
quantity.kind: abundance fitness
The reply should be a number, written without any unit.

Observe how each entry below is paired with its result.
- mutation.name: "V9S"
  abundance fitness: -0.143
- mutation.name: "F11L"
  abundance fitness: -1.14

*Q* Name the recorded abundance fitness of the variant listed here: `E6A`
*A* -0.388

*Q* Name the recorded abundance fitness of the variant listed here: `I34N`
*A* -0.267
